run-description: Kinetics of EXE reduction to 17β-DHE, pooled human liver cytosol
Format: in vitro ADME
experimental-setup: human, pooled human liver cytosol, pH 7.4
quantity-kind: Km at 90 min (µM)
The figure you give is taken to be in µM; do not add the unit.

Ask: Any idea what its Km at 90 min is? The compound is C=C1C[C@@H]2[C@H](CC[C@]3(C)C(=O)CC[C@@H]23)[C@@]2(C)C=CC(=O)C=C12
Result: 55.7
